pIC50: −log10 of the molar value.
The compounds below each have a reported pIC50 tested on HPK1 (Homo sapiens (Human)); the values come from various publications.
Sequence (Q92918 whole entry): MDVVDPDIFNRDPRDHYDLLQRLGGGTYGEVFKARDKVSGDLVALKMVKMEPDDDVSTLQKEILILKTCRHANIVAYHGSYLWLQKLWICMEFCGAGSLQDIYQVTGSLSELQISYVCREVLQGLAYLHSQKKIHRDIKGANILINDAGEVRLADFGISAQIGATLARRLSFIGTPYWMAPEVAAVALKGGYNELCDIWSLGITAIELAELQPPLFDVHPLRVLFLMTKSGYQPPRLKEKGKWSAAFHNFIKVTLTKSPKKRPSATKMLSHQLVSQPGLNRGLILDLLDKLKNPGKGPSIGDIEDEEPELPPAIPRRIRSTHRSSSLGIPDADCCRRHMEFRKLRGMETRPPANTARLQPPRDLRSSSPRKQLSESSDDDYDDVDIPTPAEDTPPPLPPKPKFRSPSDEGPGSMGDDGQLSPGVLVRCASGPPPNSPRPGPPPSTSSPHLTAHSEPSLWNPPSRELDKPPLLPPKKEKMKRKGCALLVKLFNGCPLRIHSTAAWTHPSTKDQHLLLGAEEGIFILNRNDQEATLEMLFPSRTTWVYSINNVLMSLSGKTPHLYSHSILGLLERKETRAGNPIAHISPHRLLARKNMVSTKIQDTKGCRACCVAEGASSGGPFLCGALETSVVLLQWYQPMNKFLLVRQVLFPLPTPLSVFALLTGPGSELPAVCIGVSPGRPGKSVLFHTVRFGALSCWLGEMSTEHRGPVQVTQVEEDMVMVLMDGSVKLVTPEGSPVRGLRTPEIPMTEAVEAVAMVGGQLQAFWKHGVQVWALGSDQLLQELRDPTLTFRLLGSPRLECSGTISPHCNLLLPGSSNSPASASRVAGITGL
quantity-measured: pIC50

compound | experimental-target | recorded-measurement
CN1CCN2c3ccc(-c4n[nH]c5cnc(-c6cccn7ccnc67)cc45)cc3OCC2C1 (centres unmarked) | HPK1 (Homo sapiens (Human)) | ≥ 8.00
CNc1ncc2c(n1)N1CCN=C1C(c1cc(NC(=O)c3nccc(C(F)(F)F)n3)ccc1C)=C2 | HPK1 (Homo sapiens (Human)) | 5.00 to 7.00
O=C1NCc2c(-c3cnc4c(F)cccn34)ccc(Nc3ccc(N4CCC(O)CC4)cn3)c21 | HPK1 (Homo sapiens (Human)) | > 7.00
C[C@H]1COCCN1c1ccc(Nc2ccc(-c3cnc4cnccn34)c3c2C(=O)NC3)nc1 | HPK1 (Homo sapiens (Human)) | > 7.00
CN1CC[C@H](c2ccc(Nc3ccc(-c4cnc5cc(F)ccn45)c4c3C(=O)NC4)nc2)C1=O | HPK1 (Homo sapiens (Human)) | > 7.00
CN1Cc2cc(Nc3ncc4c(N)c(F)c(-c5cnc6c(c5)NCCO6)cc4n3)ccc2C2(CC2)C1 | HPK1 (Homo sapiens (Human)) | 9.57
O=C1NCc2c(-c3cnc4cnccn34)ncc(Nc3ccc(N4CCC(O)CC4)cn3)c21 | HPK1 (Homo sapiens (Human)) | 6.00 to 7.00
N#CCc1ccc(F)c(-c2cc(Nc3ccc(N4CCC(O)CC4)cn3)c3c(=O)[nH]ccc3n2)c1 | HPK1 (Homo sapiens (Human)) | ≥ 7.00
